# Measurement Target: T1, human PD-L1 on CHO-K1 cells overexpressing human PD-L1 (human, UniProt Q9NZQ7 19-290)
# T1 construct: whole, on cells; also called CHO-K1/hPD-L1; CHO-K1-hPD-L1
# T1 sequence (Q9NZQ7 19-290): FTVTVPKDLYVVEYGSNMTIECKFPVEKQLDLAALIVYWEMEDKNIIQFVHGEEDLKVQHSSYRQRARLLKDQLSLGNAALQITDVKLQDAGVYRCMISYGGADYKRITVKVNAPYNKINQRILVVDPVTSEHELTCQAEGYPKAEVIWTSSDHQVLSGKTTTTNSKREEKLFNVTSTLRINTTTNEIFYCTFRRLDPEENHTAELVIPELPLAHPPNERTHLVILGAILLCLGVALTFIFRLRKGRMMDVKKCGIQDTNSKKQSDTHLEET
# Assay: flow cytometry on CHO-K1 cells overexpressing human PD-L1 (CHO-K1/hPD-L1) [continued) E]
Measured Quantity: pEC50
Give only the number. pEC50 is defined as minus log10 of concentration in molar units.

Consider the following illustrative entries.
- PR005869 (antibody, human IgG1, V domains shown, The HC entry is used) VH: QVQLVESGGGVVQPGMSLRLSCAASGFTFSSYGMYWVRQAPGKGQEWVAIIWYDGTKKHYADSVKGRFTISRDNSKNTLYLEMNSLRVEDTAVYYCAKNRALFGVIPDDSDIRGQGTMVTVSS: 8.95
- PR005263 (antibody, human IgG1, V domains shown, The HC entry is used) VH: QVQLVESGGGVVQPGMSLRLSCAASGFTFSSYGMYWVRQAPGKGQEWVASIRYTGTEKHYADSVKGRFTISRDNSKNTLYLEMNSLRVEDTAVYYCAKNRAIFGVVPDASDIRGQGTMVTVSS: 9.04
- PR005867 (antibody, human IgG1, V domains shown, The HC entry is used) VH: QVQLVESGGGVVQPGMSLRLSCAASGFTFSSYGMYWVRQAPGKGQEWVAIIWYDGTKKHYADSVKGRFTISRDNSKNTLYLEMNSLRVEDTAVYYCAKNRAIFGVIPDDSDIRGQGTMVTVSS: 8.95

input: GET /values?readout=pEC50&item= PR005868 (antibody, human IgG1, V domains shown, The HC entry is used) VH: QVQLVESGGGVVQPGMSLRLSCAASGFTFSSYGMYWVRQAPGKGQEWVAIIWYDGTKKHYADSVKGRFTISRDNSKNTLYLEMNSLRVEDTAVYYCAKNRALFGVIPDASDIRGQGTMVTVSS
output: 8.97

input: Would you kindly share the measured pEC50 for PR002082 (antibody, human IgG1, V domains shown, HCAb; also called PTM variant of PR000960 (N28T, N31S)) VH: QVQLVESGGGVVQPGMSLRLSCAASGFTFSSYGMYWVRQAPGKGQEWVAIIWYDGTKKHYADSVKGRFTISRDNSKNTLYLEMNSLRVEDTAVYYCAKNRAIFGVVPDASDIRGQGTMVTVSS ?
output: 8.91
